TEST_TARGET: T1, human IL-23 (IL-23-His-Biotin) (human, UniProt Q9NPF7 20-189; P29460 23-328, biotin label, site not stated)
T1 construct: Akesobio lot 20161209; His-tagged and biotinylated
T1 sequence (looked up) 1: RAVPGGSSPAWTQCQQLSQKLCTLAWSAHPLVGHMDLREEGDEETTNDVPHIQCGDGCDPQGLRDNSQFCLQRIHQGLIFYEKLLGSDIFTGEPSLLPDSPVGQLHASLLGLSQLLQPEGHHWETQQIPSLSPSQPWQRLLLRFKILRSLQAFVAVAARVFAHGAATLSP
T1 sequence (looked up) 2: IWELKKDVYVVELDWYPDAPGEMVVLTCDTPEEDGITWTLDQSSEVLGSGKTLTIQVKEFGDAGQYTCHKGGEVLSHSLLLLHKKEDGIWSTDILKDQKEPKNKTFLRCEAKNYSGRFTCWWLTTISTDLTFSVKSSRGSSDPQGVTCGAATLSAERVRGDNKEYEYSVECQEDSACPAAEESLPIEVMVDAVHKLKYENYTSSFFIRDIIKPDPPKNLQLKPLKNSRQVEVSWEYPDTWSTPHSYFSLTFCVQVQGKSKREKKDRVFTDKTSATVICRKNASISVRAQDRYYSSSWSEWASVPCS
MEASUREMENT_NOTES: FACS competition, IL-23-His-Biotin 2 µg/mL on 293T-IL-12Rβ1&IL-23R cells; antibody 1.11 µg/mL
Catalogue of MFI readings, one per entry.
Return type: number; implicit unit MFI.

These recorded examples may help you get a feel for the data.
{"columns": ["BINDER", "MFI, MFI"],
 "data": [
  ["H5L9 (antibody, human IgG1, kappa, V domains shown, human IgG1 (P01857) / kappa (P01834) constant regions; also called humanized antibody H5L9) VH: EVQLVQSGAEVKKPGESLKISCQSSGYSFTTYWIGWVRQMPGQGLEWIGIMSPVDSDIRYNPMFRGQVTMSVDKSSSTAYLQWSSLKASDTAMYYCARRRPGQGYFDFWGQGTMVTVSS VL: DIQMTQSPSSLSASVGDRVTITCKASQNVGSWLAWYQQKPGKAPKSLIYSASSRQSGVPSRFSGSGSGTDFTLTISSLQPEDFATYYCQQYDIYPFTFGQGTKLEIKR", 184],
  ["H5L10 (antibody, human IgG1, kappa, V domains shown, human IgG1 / kappa constant regions; also called humanized antibody H5L10) VH: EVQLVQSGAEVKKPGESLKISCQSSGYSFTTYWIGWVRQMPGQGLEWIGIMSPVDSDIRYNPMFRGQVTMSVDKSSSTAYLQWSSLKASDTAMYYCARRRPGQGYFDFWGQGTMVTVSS VL: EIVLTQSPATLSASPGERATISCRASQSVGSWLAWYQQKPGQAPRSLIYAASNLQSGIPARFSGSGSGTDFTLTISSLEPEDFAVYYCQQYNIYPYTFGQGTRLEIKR", 81.6]
]}

We next turn to a different binder, shown below.
QUERY: Reported MFI, binder H5L11 (antibody, human IgG1, kappa, V domains shown, human IgG1 / kappa constant regions; also called humanized antibody H5L11) VH: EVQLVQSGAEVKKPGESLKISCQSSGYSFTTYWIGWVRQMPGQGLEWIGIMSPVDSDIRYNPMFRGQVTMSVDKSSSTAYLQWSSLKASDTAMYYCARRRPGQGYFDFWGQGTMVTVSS VL: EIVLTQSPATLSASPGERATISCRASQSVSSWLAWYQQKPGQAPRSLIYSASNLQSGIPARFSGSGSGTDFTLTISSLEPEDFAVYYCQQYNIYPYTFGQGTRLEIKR : ____
RESULT: 97.6
